Values from patent US20060058231A1

Each entry below carries its recorded BMPRII binding (relative to wild type = 1.0).
system_name: T1, BMPRII receptor-Fc fusion (UniProt Q13873 27-151, limits assumed)
T1 construct: BMP receptor-Fc fusion used at 5 ug/mL
T1 sequence (looked up): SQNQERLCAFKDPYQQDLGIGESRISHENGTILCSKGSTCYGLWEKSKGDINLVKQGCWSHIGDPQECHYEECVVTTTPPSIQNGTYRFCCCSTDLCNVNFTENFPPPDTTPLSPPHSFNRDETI
assay_remarks: ELISA-like plate assay, captured BMP-7 from conditioned media, receptor-Fc detection
measured_parameter: BMPRII binding (relative to wild type = 1.0)

[[record]]
binder = "BMP-7 variant L21D (ligand, In conditioned media; numbering on mature BMP-7) STGGKQRSQNRSKTPKNQEADRMASVAENSSSDQRQACKKHELYVSFRDLGWQDWIIAPEGYAAYYCEGECAFPLNSYMNATNHAIVQTLVHFINPETVPKPCCAPTQLNAISVLYFDDSSNVILKKYRNMVVRACGCH"
result = "0.94 relative to wild type"

[[record]]
binder = "BMP-7 variant Y128K (ligand, In conditioned media; numbering on mature BMP-7) STGGKQRSQNRSKTPKNQEALRMASVAENSSSDQRQACKKHELYVSFRDLGWQDWIIAPEGYAAYYCEGECAFPLNSYMNATNHAIVQTLVHFINPETVPKPCCAPTQLNAISVLYFDDSSNVILKKKRNMVVRACGCH"
result = "1.78 relative to wild type"

[[record]]
binder = "BMP-7 variant Q53D (ligand, In conditioned media; numbering on mature BMP-7) STGGKQRSQNRSKTPKNQEALRMASVAENSSSDQRQACKKHELYVSFRDLGWDDWIIAPEGYAAYYCEGECAFPLNSYMNATNHAIVQTLVHFINPETVPKPCCAPTQLNAISVLYFDDSSNVILKKYRNMVVRACGCH"
result = "1.01 relative to wild type"

[[record]]
binder = "BMP-7 variant L90T (ligand, In conditioned media; numbering on mature BMP-7) STGGKQRSQNRSKTPKNQEALRMASVAENSSSDQRQACKKHELYVSFRDLGWQDWIIAPEGYAAYYCEGECAFPLNSYMNATNHAIVQTTVHFINPETVPKPCCAPTQLNAISVLYFDDSSNVILKKYRNMVVRACGCH"
result = "0.29 relative to wild type"

[[record]]
binder = "BMP-7 variant F117R (ligand, In conditioned media; numbering on mature BMP-7) STGGKQRSQNRSKTPKNQEALRMASVAENSSSDQRQACKKHELYVSFRDLGWQDWIIAPEGYAAYYCEGECAFPLNSYMNATNHAIVQTLVHFINPETVPKPCCAPTQLNAISVLYRDDSSNVILKKYRNMVVRACGCH"
result = "0.72 relative to wild type"

[[record]]
binder = "BMP-7 variant Y44T (ligand, In conditioned media; numbering on mature BMP-7) STGGKQRSQNRSKTPKNQEALRMASVAENSSSDQRQACKKHELTVSFRDLGWQDWIIAPEGYAAYYCEGECAFPLNSYMNATNHAIVQTLVHFINPETVPKPCCAPTQLNAISVLYFDDSSNVILKKYRNMVVRACGCH"
result = "0.25 relative to wild type"

[[record]]
binder = "BMP-7 variant E60H (ligand, In conditioned media; numbering on mature BMP-7) STGGKQRSQNRSKTPKNQEALRMASVAENSSSDQRQACKKHELYVSFRDLGWQDWIIAPHGYAAYYCEGECAFPLNSYMNATNHAIVQTLVHFINPETVPKPCCAPTQLNAISVLYFDDSSNVILKKYRNMVVRACGCH"
result = "1.25 relative to wild type"

